Attribution: patent US5071636A

PROTOCOL_TEXT: Biodistribution in rabbits: biological half life in the brain by gamma camera imaging
Format: in vivo, Japanese white rabbits (male)
DETAILS: rabbit, in vivo
Exercise: state measured Biological half-life in brain, Second phase (rate) for each of the compounds provided.
Give bare numbers, in %.

For orientation, consider the following solved cases.
Form: compound = CC(C)(S)CNCCNC(CN1CCNCC1)C(C)(C)S (stereo not shown) [Compound 11h] ; Biological half-life in brain, Second phase (rate) = 56

Form: compound = CC(C)(S)CNCCNC(CN1CCCCC1)C(C)(C)S (stereo not shown) [Compound 11g] ; Biological half-life in brain, Second phase (rate) = 77

Form: compound = CN1CCN(CC(NCCNCC(C)(C)S)C(C)(C)S)CC1 (stereo not shown) [Compound 11i] ; Biological half-life in brain, Second phase (rate) = 50

Form: compound = CC(C)(S)CNCCNC(CN1CCCC1)C(C)(C)S (stereo not shown) [Compound 11r] ; Biological half-life in brain, Second phase (rate) = 72

Form: compound = CCCCCCNCC(NCCNCC(C)(C)S)C(C)(C)S (stereo not shown) [Compound 11m] ; Biological half-life in brain, Second phase (rate) = 76

I would be grateful if you could provide Biological half-life in brain, Second phase (rate) for each of the following entries.
1. CC(C)(S)CNCCNC(CN1CCN(Cc2ccccc2)CC1)C(C)(C)S (stereo not shown) [Compound 11w]
2. CCCCSC(C)(C)CNCCNC(CN1CCC(C)CC1)C(C)(C)S (stereo not shown) [Compound 33]
3. CCCCCNCC(NCCNCC(C)(C)S)C(C)(C)S (stereo not shown) [Compound 11d]
4. CC1CCN(CC(NCCNCC(C)(C)S)C(C)(C)S)CC1 (stereo not shown) [Compound 11p]
5. CCCC(C)NCC(NCCNCC(C)(C)S)C(C)(C)S (stereo not shown) [Compound 11l]

Key:
1. 40
2. 74
3. 68
4. 82
5. 66
